System: AMO-1 human multiple myeloma tumor cell line
assay.notes: AMO-1 cell viability assay (CellTiter-Glo, 24 hours)
Format: cell-based
recorded.conditions: Homo sapiens, AMO1, 24 h, read-out: AMO-1 Viability IC50 (μM, 10% FBS), 10% FBS, 24 hours of compound treatment
value.type: IC50 (µM)
Report the figure in µM without appending any unit label.

As a guide, the following entries are already answered.
COCCOCCOCCOCC1(C)CC=C(c2nccc(COc3ccc4cc3C[C@H](C(=O)O)Oc3ncnc5sc(-c6ccc(F)cc6)c(c35)-c3c(C)c(Cl)c(c(Cl)c3C)O[C@H](CN3CCN(C)CC3)CO4)n2)CC1 (single isomer, unassigned) [Example 112]; 0.000132
Cc1c(Cl)c2c(Cl)c(C)c1-c1c(-c3ccc(F)cc3)sc3ncnc(c13)O[C@@H](C(=O)O)Cc1cc(ccc1OCc1ccnc(C(C)(C)COCCOC[C@H]3COCCO3)n1)OC[C@@H](CN1CCN(C)CC1)O2 [Example 80]; 0.000189

Here is the next item to consider.
Record COCCOCCOCCOCCOC[C@@H]1CCCC[C@H]1c1nccc(COc2ccc3cc2C[C@H](C(=O)O)Oc2ncnc4sc(-c5ccc(F)cc5)c(c24)-c2c(C)c(Cl)c(c(Cl)c2C)O[C@H](CN2CCN(C)CC2)CO3)n1 (relative stereo) [Example 120] . Reported IC50: 0.000231

---

System: AMO-1 human multiple myeloma tumor cell line
assay.notes: AMO-1 cell viability assay (CellTiter-Glo, 24 hours)
Assay type: cell-based
recorded.conditions: Homo sapiens, AMO1, 24 h, read-out: AMO-1 Viability IC50 (μM, 10% FBS), 10% FBS, 24 hours of compound treatment
value.type: IC50 (µM)
Report the figure in µM without appending any unit label.

Cc1c(Cl)c2c(Cl)c(C)c1-c1c(-c3ccc(F)cc3)sc3ncnc(c13)O[C@@H](C(=O)O)Cc1cc(ccc1OCc1ccnc(N3CCOCCOCCOCCOCC3)n1)OC[C@@H](CN1CCN(C)CC1)O2; 0.000593

Record "Cc1c(Cl)c2c(Cl)c(C)c1-c1c(-c3ccc(F)cc3)sc3ncnc(c13)O[C@@H](C(=O)O)Cc1cc(ccc1OCc1ccnc(-c3cccc(S(=O)(=O)N4CCOCC4)c3)n1)OC[C@@H](CN1CCN(C)CC1)O2" . Reported IC50: 0.000363

Record "COCCOCCOCCOc1cncc(COc2ccc3cc2C[C@H](C(=O)O)Oc2ncnc4sc(-c5ccc(F)cc5)c(c24)-c2c(C)c(Cl)c(c(Cl)c2C)O[C@H](CN2CCN(C)CC2)CO3)n1" . Reported IC50: 0.00386

Record "Cc1c(Cl)c2c(Cl)c(C)c1-c1c(-c3ccc(F)cc3)sc3ncnc(c13)O[C@@H](C(=O)O)Cc1cc(ccc1OCc1ccnc(N3CCC(CC(=O)O)CC3)n1)OC[C@@H](CN1CCN(C)CC1)O2" . Reported IC50: 0.0222

Record "Cc1c(Cl)c2c(Cl)c(C)c1-c1c(-c3ccc(F)cc3)sc3ncnc(c13)O[C@@H](C(=O)O)Cc1cc(ccc1OCc1ccnc(C3=CCS(=O)(=O)CC3)n1)OC[C@@H](CN1CCN(C)CC1)O2" . Reported IC50: 0.00123

---

Ki reference
assay.system: GST-MCL-1 (Homo sapiens)
assay.notes: TR-FRET MCL-1 binding assay (competition with probe F-Bak)
recorded.conditions: MCL-1 Binding Ki (nM, 10% HS), in the presence of 10% HS (human serum)
Report the figure in nM without appending any unit label.

Cc1c(Cl)c2c(Cl)c(C)c1-c1c(-c3ccc(F)cc3)sc3ncnc(c13)O[C@@H](C(=O)O)Cc1cc(ccc1OCc1ccnc(-c3ccc(OC[C@H]4CN(C)CCCO4)cc3)n1)OC[C@@H](CN1CCN(C)CC1)O2 [Example 175]; 0.122
COCCOCCOCC1CN(c2nccc(COc3ccc4cc3C[C@H](C(=O)O)Oc3ncnc5sc(-c6ccc(F)cc6)c(c35)-c3c(C)c(Cl)c(c(Cl)c3C)O[C@H](CN3CCN(C)CC3)CO4)n2)C1 [Example 139]; 1.21
Cc1c(Cl)c2c(Cl)c(C)c1-c1c(-c3ccc(F)cc3)sc3ncnc(c13)O[C@@H](C(=O)O)Cc1cc(ccc1OCc1ccnc(C(CO)CO)n1)OC[C@@H](CN1CCN(C)CC1)O2 [Example 62]; 2.26

Record Cc1c(Cl)c2c(Cl)c(C)c1-c1c(-c3ccc(F)cc3)sc3ncnc(c13)O[C@@H](C(=O)O)Cc1cc(ccc1OCc1ccnc(-c3ccccc3S(C)(=N)=O)n1)OCC(CN1CCN(C)CC1)O2 (stereo partly drawn) [Example 26] . Reported Ki: 0.11

Record Cc1c(Cl)c2c(Cl)c(C)c1-c1c(-c3ccc(F)cc3)sc3ncnc(c13)O[C@@H](C(=O)O)Cc1cc(ccc1OCc1ccnc(N3C[C@H]4C[C@@H](C3)[C@H]4O)n1)OC[C@@H](CN1CCN(C)CC1)O2 [Example 167] . Reported Ki: 0.698

---

Ki reference
assay.system: GST-MCL-1 (Homo sapiens, UniProt Q07820)
Sequence (Q07820 whole entry): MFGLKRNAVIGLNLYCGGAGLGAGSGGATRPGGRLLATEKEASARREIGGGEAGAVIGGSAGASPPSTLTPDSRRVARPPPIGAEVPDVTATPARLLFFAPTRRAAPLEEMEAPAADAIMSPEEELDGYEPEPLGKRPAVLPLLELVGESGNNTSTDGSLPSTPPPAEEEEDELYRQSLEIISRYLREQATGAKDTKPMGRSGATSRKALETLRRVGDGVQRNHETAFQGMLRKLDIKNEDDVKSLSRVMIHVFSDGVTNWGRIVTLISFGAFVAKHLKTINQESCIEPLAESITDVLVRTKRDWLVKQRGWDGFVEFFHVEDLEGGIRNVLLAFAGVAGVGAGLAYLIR
assay.notes: TR-FRET MCL-1 binding assay (competition with probe F-Bak)
recorded.conditions: MCL-1 Binding Ki (nM, 10% HS), in the presence of 10% HS (human serum)
Report the figure in nM without appending any unit label.

Cc1c(Cl)c2c(Cl)c(C)c1-c1c(-c3ccc(F)cc3)sc3ncnc(c13)O[C@@H](C(=O)O)Cc1cc(ccc1OCc1ccnc([C@@]3(O)CCCC[C@@H]3O)n1)OC[C@@H](CN1CCN(C)CC1)O2 [Example 38]; 0.416

Record Cc1c(Cl)c2c(Cl)c(C)c1-c1c(-c3ccc(F)cc3)sc3ncnc(c13)O[C@@H](C(=O)O)Cc1cc(ccc1OCc1ccnc(C3=CCS(=O)(=O)CC3)n1)OC[C@@H](CN1CCN(C)CC1)O2 [Example 34] . Reported Ki: 0.276

Record Cc1c(Cl)c2c(Cl)c(C)c1-c1c(-c3ccc(F)cc3)sc3ncnc(c13)O[C@@H](C(=O)O)Cc1cc(ccc1OCc1ccnc(N3CC4(COC4)C3)n1)OC[C@@H](CN1CCN(C)CC1)O2 [Example 42] . Reported Ki: 0.747

---

assay.system: GST-MCL-1 (Homo sapiens)
assay.notes: TR-FRET MCL-1 binding assay (competition with probe F-Bak)
recorded.conditions: without HS; read-out: MCL-1 Binding Ki
Protocol: Tb-anti-GST antibody was purchased from Invitrogen (Catalog No. PV4216). […] The samples were then mixed on a shaker for 1 minute and incubated for an additional 2 hours at room temperature. […] Fluorescence was measured on the Envision (Perkin Elmer) using a 340/35 nm excitation filter and 520/525 (F-Bak) and 495/510 nm (Tb-labeled anti-his antibody) emission filters. […]
value.type: Ki

As a guide, the following entries are already answered.
COCCOCCOCC1CN(c2nccc(COc3ccc4cc3C[C@H](C(=O)O)Oc3ncnc5sc(-c6ccc(F)cc6)c(c35)-c3c(C)c(Cl)c(c(Cl)c3C)O[C@H](CN3CCN(C)CC3)CO4)n2)C1; 0.147 nM
Cc1c(Cl)c2c(Cl)c(C)c1-c1c(-c3ccc(F)cc3)sc3ncnc(c13)O[C@@H](C(=O)O)Cc1cc(ccc1OCc1ccnc(C3=CCC(CC(=O)O)CC3)n1)OC[C@@H](CN1CCN(C)CC1)O2 (single isomer, unassigned) [Example 35]; 0.007 nM
CO[C@@H]1CO[C@H]2[C@@H]1OC[C@H]2OCCOCCOC1CCC(c2nccc(COc3ccc4cc3C[C@H](C(=O)O)Oc3ncnc5sc(-c6ccc(F)cc6)c(c35)-c3c(C)c(Cl)c(c(Cl)c3C)O[C@H](CN3CCN(C)CC3)CO4)n2)CC1 (stereo partly drawn); 0.007 nM
Cc1c(Cl)c2c(Cl)c(C)c1-c1c(-c3ccc(F)cc3)sc3ncnc(c13)O[C@@H](C(=O)O)Cc1cc(ccc1OCc1ccnc(-c3ccc(OCCN4C[C@H]5COC[C@H]5C4)cc3)n1)OC[C@@H](CN1CCN(C)CC1)O2; 0.061 nM
Cc1c(Cl)c2c(Cl)c(C)c1-c1c(-c3ccc(F)cc3)sc3ncnc(c13)O[C@@H](C(=O)O)Cc1cc(ccc1OCc1ccnc(N3CCS(=O)(=O)CC3)n1)OC[C@@H](CN1CCN(C)CC1)O2; 0.375 nM
COCCOCCO[C@]1(c2nccc(COc3ccc4cc3C[C@H](C(=O)O)Oc3ncnc5sc(-c6ccc(F)cc6)c(c35)-c3c(C)c(Cl)c(c(Cl)c3C)O[C@H](CN3CCN(C)CC3)CO4)n2)CC[C@@H](OCC2COCCO2)CC1 (stereo partly drawn); 0.052 nM
COCCOCCO[C@]1(c2nccc(COc3ccc4cc3C[C@H](C(=O)O)Oc3ncnc5sc(-c6ccc(F)cc6)c(c35)-c3c(C)c(Cl)c(c(Cl)c3C)O[C@H](CN3CCN(C)CC3)CO4)n2)CC[C@H](OCC2COCCO2)CC1 (stereo partly drawn); 0.024 nM
COCCOCCOCCOCCCN1CCN(c2nccc(COc3ccc4cc3C[C@H](C(=O)O)Oc3ncnc5sc(-c6ccc(F)cc6)c(c35)-c3c(C)c(Cl)c(c(Cl)c3C)O[C@H](CN3CCN(C)CC3)CO4)n2)CC1; 0.301 nM

Record COCCOCCOCCOCCOC[C@@H]1CCCC[C@H]1c1nccc(COc2ccc3cc2C[C@H](C(=O)O)Oc2ncnc4sc(-c5ccc(F)cc5)c(c24)-c2c(C)c(Cl)c(c(Cl)c2C)O[C@H](CN2CCN(C)CC2)CO3)n1 (relative stereo) . Reported Ki: 26.3 nM
